- measurement_target: T1, CD74 (MHC class II invariant chain) of DR*1501-Tg mouse splenocytes and monocytes (mouse, UniProt P04441-2 1-215, limits assumed, surface biotinylated in the immunoprecipitation experiments)
- T1 construct: Native protein from mouse cells; also called p31
- T1 sequence (looked up): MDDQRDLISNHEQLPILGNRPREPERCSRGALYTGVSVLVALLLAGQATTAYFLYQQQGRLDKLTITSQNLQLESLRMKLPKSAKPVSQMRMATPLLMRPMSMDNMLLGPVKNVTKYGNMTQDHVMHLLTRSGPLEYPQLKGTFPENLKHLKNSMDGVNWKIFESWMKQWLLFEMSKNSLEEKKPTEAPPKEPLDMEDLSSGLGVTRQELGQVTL
- experiment_summary: competition of unlabeled DR-α1 with FITC-labeled RTL1000 (320 nM) for immunoprecipitated CD74; gel densitometry; one-site competition fit
readout_type: EC50 (nM)
Answers are plain numbers, in nM.

Lab note: measured EC50 of DR-α1 domain alone (no DR2-β1 domain or peptide) (other, UniProt P01903 26-109, looked up, labeled with FITC in the direct binding assays, domain: α1) IKEEHVIIQAEFYLNPDQSGEFMFDFDGDEIFHVDMAKKETVWRLEEFGRFASFEAQGALANIAVDKANLEIMTKRSNYTPITN was 447

Source: patent US20150044245A1
